molecular target: Glutamate NMDA receptor; assay: Ability to displace [3H]glycine from NMDA receptor in rat cortical membranes; assay type: cell membranes
pKi: −log10 of the molar value.
Listed here are compounds together with their documented pKi.
quantity-kind: pKi

chemical_string=O=Cc1ccn(-c2cc3c(cc2Cl)nc(O)c2nc(C(=O)O)nn23)c1 quantity_kind=pKi test_value=4.55
chemical_string=O=C(O)c1nc2c(O)nc3cc(Cl)c(-n4cccc4)cc3n2n1 quantity_kind=pKi test_value=6.07
chemical_string=CCOC(=O)c1nc2c(O)nc3cc(Cl)c(-n4ccc(C=O)c4)cc3n2n1 quantity_kind=pKi test_value=4.72

====

Each item that follows carries a reported pIC50.
assay: Antagonism at NMDA receptor in mouse cortical wedge preparation expressed as concentration that inhibits by 50% depolarizations induced by 5 uM NMDA
pIC50: −log10 of the molar value.
quantity-kind: pIC50

chemical_string=O=C(O)c1nc2c(O)nc3cc(Cl)c(-n4cncn4)cc3n2n1 test_value=3.46
chemical_string=O=C(O)c1nc2c(O)nc3cc(Cl)c(-n4cccc4)cc3n2n1 test_value=4.28
chemical_string=O=C(O)c1nc2c(=O)[nH]c3cc(Cl)c(-n4cccn4)cc3n2n1 test_value=3.82

====

Reported inhibition by item:
target: Glutamate receptor ionotropic, kainate (Rattus norvegicus) (UniProt P22756+Q01812+P42260+P42264+Q63273); experiment: Inhibition of [3H]KA binding to kainate receptor in rat brain membranes; type: cell membranes; set-up: concentration or dose not given beside the values; details: concentration not given here
quantity-kind: inhibition (%)

chemical_string=CCOC(=O)c1nc2c(O)nc3cc(Cl)c([N+](=O)[O-])cc3n2n1 quantity_kind=inhibition test_value=35
chemical_string=O=C(O)c1nc2c(O)nc3cc(-n4cnnc4)ccc3n2n1 quantity_kind=inhibition test_value=44
chemical_string=CCOC(=O)c1nc2c(O)nc3cc(Cl)c(-n4cccn4)cc3n2n1 quantity_kind=inhibition test_value=20
chemical_string=CCOC(=O)c1nc2c(O)nc3cc(-n4cnnc4)ccc3n2n1 quantity_kind=inhibition test_value=35
chemical_string=CCOC(=O)c1nc2c(O)nc3cc(Cl)c(-n4cncn4)cc3n2n1 quantity_kind=inhibition test_value=29

====

molecular target: Glutamate receptor ionotropic, AMPA (Rattus norvegicus, UniProt P19490+P19491+P19492+P19493); experiment: Binding affinity at ionotropic glutamate receptor AMPA in rat cortical membranes [3H]AMPA displacement.
Below is a list of entries, each paired with its recorded log10(Ki) value.
quantity-kind: log10(Ki) (log10 of the value in µM)

chemical_string=O=C(O)c1nc2c(O)nc3cc(Cl)c(-n4cncn4)cc3n2n1 test_value=0.57
chemical_string=O=Cc1ccn(-c2cc3c(cc2Cl)nc(O)c2nc(C(=O)O)nn23)c1 test_value=-0.28
chemical_string=Nc1ccc2nc(O)c3nc(C(=O)O)nn3c2c1 test_value=1.64
chemical_string=CCOC(=O)c1nc2c(O)nc3cc(Cl)c(-n4cccc4)cc3n2n1 test_value=1.26
chemical_string=CCOC(=O)c1nc2c(O)nc3cc(-n4cnnc4)ccc3n2n1 test_value=1.00
chemical_string=CCOC(=O)c1nc2c(O)nc3cc(Cl)c([N+](=O)[O-])cc3n2n1 test_value=1.67
chemical_string=CCOC(=O)c1nc2c(O)nc3cc(Cl)c(-n4ccc(C=O)c4)cc3n2n1 test_value=0.28
chemical_string=CCOC(=O)c1nc2c(O)nc3cc(Cl)c(-n4cncn4)cc3n2n1 test_value=1.24
chemical_string=O=C(O)c1nc2c(O)nc3cc(Cl)c(-n4cccc4)cc3n2n1 test_value=-0.07
chemical_string=O=C(O)c1nc2c(=O)[nH]c3cc(Cl)c(-n4cccn4)cc3n2n1 test_value=0.63
